The measured values listed here are drawn from the array DNA melting data of Ke et al. (doi:10.1101/2024.01.08.574731).

test: folding enthalpy; higher = less favourable; fluorescence melt of hairpins on a sequencing array, two-state fit; conditions: sodium 0.088 M
Lab note: anything with folding enthalpy at or over -30 kcal/mol counts as fulfilled; the rest go in not fulfilled.

Please indicate if the recorded folding enthalpy for GTTCTCCGAAAGGAAAAC (((.(((....))).))) meets or exceeds -30 kcal/mol. fulfilled

Threshold query (folding enthalpy >= -30 kcal/mol) on GATCCGTTGCCGGATC ((((((....)))))) not fulfilled

Evaluate GCATTCGGAAACGGATGC ((((.((....)).)))) : folding enthalpy at minimum -30 kcal/mol? not fulfilled

Hi, just wondering whether GTTGCCGAAAGGCCAAAC ((((((....)))..))) shows folding enthalpy of -30 kcal/mol or higher. fulfilled

For this sequence, is measured folding enthalpy -30 kcal/mol or higher? GCAGGGGGAAACCTCTGC ((((.((....)).)))) not fulfilled

Item GCACAGCGAAAGCTCCGC ((..(((....)))..)) with folding enthalpy of -30 kcal/mol or above? fulfilled

I'd appreciate it if you could say whether GTTGTACGAAAGTAAAC (((.(((....)))))) has folding enthalpy at least equal to -30 kcal/mol. fulfilled

Form field: folding enthalpy at least -30 kcal/mol? Entry: GATCAGGCCCTGATC ((((((...)))))) not fulfilled

Is it the case that GCCAGGCCGAAAGGCGGC (((..(((....)))))) has folding enthalpy reaching or exceeding -30 kcal/mol? fulfilled

I'd appreciate it if you could say whether GCGAAGACTCGC ((((....)))) has folding enthalpy at least equal to -30 kcal/mol. fulfilled

Determine whether measured folding enthalpy meets or exceeds -30 kcal/mol for GGTAGCGGAAACGTTACC ((((.((....)).)))) not fulfilled

Given the entry GGATCAGCGAAAGCTTCC (((..(((....)))))) , answer whether its folding enthalpy meets or surpasses -30 kcal/mol. fulfilled

State whether the measured folding enthalpy reaches -30 kcal/mol, counting equality as reaching it, for GCAACGCGAAAGCACTGC (((..((....))..))) fulfilled

Item CGTGCGGAAACGCAACG ((((((....))).))) with folding enthalpy of -30 kcal/mol or above? fulfilled

Hi team, for GCTGCGCGAAAGCCCTGC ((.(.((....)).).)) , is the recorded folding enthalpy at or above -30 kcal/mol? fulfilled

Has GCGTGGCGAAAGCAAGGC ((.(.((....)).).)) a recorded folding enthalpy greater than or equal to -30 kcal/mol? fulfilled

Hi, just wondering whether GTCACTTCGAAAGAAGAC (((..(((....)))))) shows folding enthalpy of -30 kcal/mol or higher. fulfilled

Given the entry GCGTAACGAAAGTTCGC (((.(((....)))))) , answer whether its folding enthalpy meets or surpasses -30 kcal/mol. not fulfilled

Would you say GACCACGCGAAAGCGGTC (((..(((....)))))) shows folding enthalpy at minimum -30 kcal/mol? fulfilled

Hello, I need to know if GGGCACGAAAGTGTCCC ((((((....))).))) has measured folding enthalpy not below -30 kcal/mol. Thanks! fulfilled

Reported folding enthalpy at or above -30 kcal/mol? GCGCTTGGAAACGAGCGC (((((.(....).))))) not fulfilled

Could you please find out whether GATCGCACTCGCGATC ((((((....)))))) has folding enthalpy that meets -30 kcal/mol or exceeds it? not fulfilled

Does the sequence GGCGCCGAAAGGCGTGCC ((((((....)))..))) have recorded folding enthalpy that is -30 kcal/mol or more? fulfilled

Could you verify whether the entry GATCTCCACTGAGATC ((((((....)))))) shows folding enthalpy of no less than -30 kcal/mol? not fulfilled

Entry GGCCACGAAAGTGCAGCC ((((((....)))..))) : is its folding enthalpy no less than -30 kcal/mol? fulfilled

Entry GGCGATGGAAACACCGCC ((((.((....)).)))) : is its folding enthalpy no less than -30 kcal/mol? not fulfilled

Is the recorded value of folding enthalpy equal to or greater than -30 kcal/mol for this sequence? GCACAGCGAAAGCTAGGC ((..(((....)))..)) fulfilled

Evaluate GCTCCGCGAAAGCTGGGC ((.(.((....)).).)) : folding enthalpy at minimum -30 kcal/mol? fulfilled

Say whether GATCCGGATTCGGATC ((((((....)))))) shows folding enthalpy of -30 kcal/mol or more. not fulfilled

Has GGGGAAGGAAACCTCCCC (((((.(....).))))) a recorded folding enthalpy greater than or equal to -30 kcal/mol? not fulfilled

// inclusive: folding enthalpy at least -30 kcal/mol? input: GACGTAGGAAACTACACC (..((((....))))..) fulfilled

Is folding enthalpy for GGTACTGGAAACAGTGTC (..((((....))))..) at or above -30 kcal/mol? fulfilled

Please indicate if the recorded folding enthalpy for GATCATTCACATGATC ((((((....)))))) meets or exceeds -30 kcal/mol. not fulfilled

Exam item: decide whether the reported folding enthalpy for GTTAAACGAAAGTTGAAC (((.(((....))).))) is at least -30 kcal/mol. fulfilled

Check if folding enthalpy >= -30 kcal/mol (inclusive). Item: GTAAAGCGAAAGCTGTAC (((.(((....))).))) fulfilled

Identify whether the reported folding enthalpy of the following sequence is -30 kcal/mol or greater: GTAGACCGAAAGGTGTAC (((.(((....))).))) not fulfilled

Is folding enthalpy at least -30 kcal/mol? Consider GGGAGTACGAAAGTACCC (((..(((....)))))) fulfilled

Quick check: does GATCCTCGCTAGGATC ((((((....)))))) have folding enthalpy greater than or equal to -30 kcal/mol? not fulfilled

In plain terms: is recorded folding enthalpy at least -30 kcal/mol for GCCAAACGAAAGTTGGC (((.(((....)))))) ? not fulfilled

Identify whether the reported folding enthalpy of the following sequence is -30 kcal/mol or greater: GCGTTACCACGC ((((....)))) fulfilled

Item GCCCTCGAAAGAGACGGC ((((((....)))..))) with folding enthalpy of -30 kcal/mol or above? fulfilled

# check: folding enthalpy of GATCCATTCGTGGATC ((((((....)))))) is greater than or equal to -30 kcal/mol not fulfilled

Is it the case that GGTCGCGAAAGCGAACC ((((((....))).))) has folding enthalpy reaching or exceeding -30 kcal/mol? fulfilled

Reported folding enthalpy at or above -30 kcal/mol? GATCTACCAATAGATC ((((((....)))))) fulfilled

Could you please find out whether GTTGGCGGAAACGCTAGC (.(.(((....))).).) has folding enthalpy that meets -30 kcal/mol or exceeds it? fulfilled

Hello, I need to know if GTCCTGCGAAAGCAGAC (((.(((....)))))) has measured folding enthalpy not below -30 kcal/mol. Thanks! fulfilled

Has GCCCAAGGAAACTCGGGC ((((.((....)).)))) a recorded folding enthalpy greater than or equal to -30 kcal/mol? fulfilled

---

experiment: folding enthalpy; higher = less favourable; fluorescence melt of hairpins on a sequencing array, two-state fit; details: sodium 0.088 M
measuredEndpoint: folding enthalpy (kcal/mol)
State just the number; it will be interpreted in kcal/mol.

For record GAGTGCCGAAAGGCCTC (((.(((....)))))) the listed folding enthalpy is -17.7

Form: sequence = GATCATGTGATGATC ((((((...)))))) ; folding enthalpy = -31.4

folding enthalpy recorded for this sequence, GCATATGGAAACACATGC ((((.((....)).)))) , is -26.8

Quick note, folding enthalpy for GGTACCGAAAGGTCACC ((((((....))).))) landed at -17.7

GATCGTCCTAACGATC ((((((....)))))) yielded folding enthalpy of -40.4

Measured folding enthalpy, GCGCGTGGAAACGTGCGC ((((..(....)..)))) : -40.5

Lab book: folding enthalpy of GGTCTACGAAAGTATACC (((.(((....))).))) noted as -35.5

Sure, the documented folding enthalpy for GAGGTCGGAAACGACTTC ((.((((....)))).)) is -20.9

folding enthalpy for GATCTGCCTGCAGATC ((((((....)))))) is -43.3

folding enthalpy in this record for GATCAGACGAAAGTCATC (((..(((....)))))) : -9.11

// GCAATGCGAAAGCTTCGC ((.(.((....)).).)) : folding enthalpy value = -11.9

Just so you know, measured folding enthalpy for GATCCACGCTGGATC ((((((...)))))) came out at -31.3

Lab note: measured folding enthalpy of GATCGACCGTTCGATC ((((((....)))))) was -46

Please fill in: folding enthalpy reported for GGGTCTGCGAAAGCACCC (((..(((....)))))) = -17.5

Memo: GGCCGCCGAAAGGCGCC (((.(((....)))))) , reported folding enthalpy: -12.8

Recorded folding enthalpy (sequence CTGTTGAAAAACAG (((((....))))) ): -23.7

sequence GAAATAGAAATATTTC ((((((....)))))) , folding enthalpy observed: -21.9

For this sequence ( GCAGTCGGAAACGGTTGC (((..((....))..))) ), measured folding enthalpy is -25.8

Data point: CGCGGAACGTCCGCG ((((((...)))))) ; folding enthalpy = -39.5

GCCTGCGAAAGCAATGGC ((((((....)))..))) yielded folding enthalpy of -23.8

For GATGGTGGAAACACTGTC ((..(((....)))..)) the sequence record lists folding enthalpy as -15.5

Reported folding enthalpy of GAACTCGGAAACGAGCTC ((.((((....)))).)) : -19

Entry GATCAGACCTCTGATC ((((((....)))))) — recorded folding enthalpy = -40.6

For this sequence ( GAACGCGAAAGCGTTTTC ((((((....)))..))) ), measured folding enthalpy is -11.6

// folding enthalpy lookup, sequence = GAGTCCGAAAGGATCCTC ((((((....)))..))) , result: -12.1

Field folding enthalpy (entry CCTGTGAAAACAGG (((((....))))) ) reads -17
